Cited source for all entries: paper PMC12070228

assay: PG toxicokinetics in dog plasma (LC-MS/MS), studies 001-005; assay type: in vivo; conditions: beagle, po, 12.5 mg/kg/day, PG 12.5, NaCDC 10, MEDI7219 0.75 mg/kg/day, clin excipients, Study 005 Day 196, read-out: Propyl Gallate Exposure (AUC0-24)
Measure Name: AUC(0-t) (ng·h/mL)
The response must be a number in ng·h/mL with no trailing unit.

Entry CCCOC(=O)c1cc(O)c(O)c(O)c1 [PG, propyl gallate] , AUC(0-t) reported as 88

----------
assay: PG toxicokinetics in dog plasma (LC-MS/MS), studies 001-005; assay type: in vivo; conditions: beagle, po, 12.5 mg/kg/day, PG 12.5, NaCDC 10, MEDI7219 0.75 mg/kg/day, clin excipients, Study 005 Day 266, read-out: Propyl Gallate Exposure (AUC0-24)
Measure Name: AUC(0-t) (ng·h/mL)
The response must be a number in ng·h/mL with no trailing unit.

Entry CCCOC(=O)c1cc(O)c(O)c(O)c1 [PG, propyl gallate] , AUC(0-t) reported as 90

----------
assay: PG toxicokinetics in dog plasma (LC-MS/MS), studies 001-005; assay type: in vivo; settings: beagle, po, 200 mg/kg/day, PG 200, NaCDC 0, MEDI7219 0 mg/kg/day, clin excipients minus NaCDC and Tris, Study 002 Day 21, read-out: Propyl Gallate Exposure (AUC0-24)
Measure Name: AUC(0-t) (ng·h/mL)
The response must be a number in ng·h/mL with no trailing unit.

Entry CCCOC(=O)c1cc(O)c(O)c(O)c1 [PG, propyl gallate] , AUC(0-t) reported as 4840

----------
assay: PG toxicokinetics in dog plasma (LC-MS/MS), studies 001-005; assay type: in vivo; settings: beagle, po, PG 25, NaCDC 20, MEDI7219 0.25 mg/kg/day, clin excipients, Study 005 Day 112, read-out: Propyl Gallate Exposure (AUC0-24)
Measure Name: AUC(0-t) (ng·h/mL)
The response must be a number in ng·h/mL with no trailing unit.

Entry CCCOC(=O)c1cc(O)c(O)c(O)c1 [PG, propyl gallate] , AUC(0-t) reported as 135

----------
test: PG toxicokinetics in dog plasma (LC-MS/MS), studies 001-005; format: in vivo; conditions: beagle, po, PG 76, NaCDC 38, MEDI7219 0.75 mg/kg/day, clin excipients, Study 001 Day 28, read-out: Propyl Gallate Exposure (AUC0-24)
Measure Name: AUC(0-t) (ng·h/mL)
The response must be a number in ng·h/mL with no trailing unit.

Entry CCCOC(=O)c1cc(O)c(O)c(O)c1 [PG, propyl gallate] , AUC(0-t) reported as 618

----------
assay: PG toxicokinetics in dog plasma (LC-MS/MS), studies 001-005; type: in vivo; conditions: beagle, po, PG 25, NaCDC 20, MEDI7219 0.25 mg/kg/day, clin excipients, Study 005 Day 196, read-out: Propyl Gallate Exposure (AUC0-24)
Measure Name: AUC(0-t) (ng·h/mL)
The response must be a number in ng·h/mL with no trailing unit.

Entry CCCOC(=O)c1cc(O)c(O)c(O)c1 [PG, propyl gallate] , AUC(0-t) reported as 232

----------
test: PG toxicokinetics in dog plasma (LC-MS/MS), studies 001-005; format: in vivo; conditions: beagle, po, 200 mg/kg/day, PG 200, NaCDC 100, MEDI7219 0 mg/kg/day, clin excipients minus Tris, Study 002 Day 14, read-out: Propyl Gallate Exposure (AUC0-24)
Measure Name: AUC(0-t) (ng·h/mL)
The response must be a number in ng·h/mL with no trailing unit.

Entry CCCOC(=O)c1cc(O)c(O)c(O)c1 [PG, propyl gallate] , AUC(0-t) reported as 2760

----------
assay: PG toxicokinetics in dog plasma (LC-MS/MS), studies 001-005; type: in vivo; conditions: beagle, po, PG 60, NaCDC 48, MEDI7219 0 mg/kg/day, clin excipients, Study 005 Day 112, read-out: Propyl Gallate Exposure (AUC0-24)
Measure Name: AUC(0-t) (ng·h/mL)
The response must be a number in ng·h/mL with no trailing unit.

Entry CCCOC(=O)c1cc(O)c(O)c(O)c1 [PG, propyl gallate] , AUC(0-t) reported as 3610

----------
experiment: PG pharmacokinetics in healthy volunteers, clinical study NCT03362593 (validated LC-MS/MS); format: in vivo; conditions: human, plasma, oral EC MEDI7219 tablets, PG 200, 400 or 800 mg
Measure Name: Tmax

Entry CCCOC(=O)c1cc(O)c(O)c(O)c1 [PG, propyl gallate] , Tmax reported as 3 to 4 h

----------
assay: PG toxicokinetics in dog plasma (LC-MS/MS), studies 001-005; format: in vivo; settings: beagle, po, PG 200, NaCDC 100, MEDI7219 0 mg/kg/day, clin excipients, Study 001, Day 28 column but Day 7 AUC value is presented (footnote g), read-out: Propyl Gallate Exposure (AUC0-24)
Measure Name: AUC(0-t) (ng·h/mL)
The response must be a number in ng·h/mL with no trailing unit.

Entry CCCOC(=O)c1cc(O)c(O)c(O)c1 [PG, propyl gallate] , AUC(0-t) reported as 2560

----------
assay: PG toxicokinetics in dog plasma (LC-MS/MS), studies 001-005; format: in vivo; conditions: beagle, po, 200 mg/kg/day, PG 200, NaCDC 0, MEDI7219 0 mg/kg/day, clin excipients minus NaCDC, Study 002 Day 21, read-out: Propyl Gallate Exposure (AUC0-24)
Measure Name: AUC(0-t) (ng·h/mL)
The response must be a number in ng·h/mL with no trailing unit.

Entry CCCOC(=O)c1cc(O)c(O)c(O)c1 [PG, propyl gallate] , AUC(0-t) reported as 1850

----------
Experiment: PG toxicokinetics in dog plasma (LC-MS/MS), studies 001-005
Type: in vivo
Settings: beagle, po, 200 mg/kg/day, PG 200, NaCDC 100, MEDI7219 2 mg/kg/day, clin excipients, Study 001 Day 28, read-out: Propyl Gallate Exposure (AUC0-24)
Method: Samples were vortexed and centrifuged before injection. The total run time was 5.5 min. The targeted quantitation of PG and phase-I/II metabolites was conducted using peak area ratio of analytes and internal standards in MultiQuant software (SCIEX). In the follow-up 4-week study (study 003), dogs received EC tablets consisting of the clinical formulation excipients minus PG, clinical formulation excipients minus NaCDC, or PG alone in a gelatin capsule once daily for 26 days. […]
Measure Name: AUC(0-t) (ng·h/mL)
The response must be a number in ng·h/mL with no trailing unit.

Entry CCCOC(=O)c1cc(O)c(O)c(O)c1 [PG, propyl gallate] , AUC(0-t) reported as 1210

----------
test: PG toxicokinetics in dog plasma (LC-MS/MS), studies 001-005; type: in vivo; conditions: beagle, po, 200 mg/kg/day, PG 200, NaCDC 0, MEDI7219 0 mg/kg/day, gelatin capsule (PG only), Study 003 Day 22, read-out: Propyl Gallate Exposure (AUC0-24)
Measure Name: AUC(0-t)
Lab note: write values as number then unit, every time.

Entry CCCOC(=O)c1cc(O)c(O)c(O)c1 [PG, propyl gallate] , AUC(0-t) reported as 1980 ng·h/mL

----------
assay: PG toxicokinetics in dog plasma (LC-MS/MS), studies 001-005; assay type: in vivo; details: beagle, po, 200 mg/kg/day, PG 200, NaCDC 0, MEDI7219 0 mg/kg/day, clin excipients minus NaCDC and Tris, Study 002 Day 14, read-out: Propyl Gallate Exposure (AUC0-24)
Measure Name: AUC(0-t) (ng·h/mL)
The response must be a number in ng·h/mL with no trailing unit.

Entry CCCOC(=O)c1cc(O)c(O)c(O)c1 [PG, propyl gallate] , AUC(0-t) reported as 1890

----------
assay: PG toxicokinetics in dog plasma (LC-MS/MS), studies 001-005; format: in vivo; conditions: beagle, po, 14 mg/kg/day, PG 14, NaCDC 7, MEDI7219 0.4 mg/kg/day, clin excipients, Study 004 Day 78, read-out: Propyl Gallate Exposure (AUC0-24)
Measure Name: AUC(0-t) (ng·h/mL)
The response must be a number in ng·h/mL with no trailing unit.

Entry CCCOC(=O)c1cc(O)c(O)c(O)c1 [PG, propyl gallate] , AUC(0-t) reported as 101

----------
assay: PG toxicokinetics in dog plasma (LC-MS/MS), studies 001-005; format: in vivo; conditions: beagle, po, 200 mg/kg/day, PG 200, NaCDC 100, MEDI7219 0 mg/kg/day, clin excipients minus Tris, Study 002 Day 21, read-out: Propyl Gallate Exposure (AUC0-24)
Measure Name: AUC(0-t) (ng·h/mL)
The response must be a number in ng·h/mL with no trailing unit.

Entry CCCOC(=O)c1cc(O)c(O)c(O)c1 [PG, propyl gallate] , AUC(0-t) reported as 1800
